Provide the recorded DTIO Corr train for the entries that follow.
- Tested on: cancer cell lines, DetermaIO classes
- assay_notes: Association of PRISM compound sensitivity with DetermaIO (DTIO) cell line classes
- Type: cell-based
- condition_summary: correlation of PRISM compound sensitivity with DTIO; training cell set
Lab note: jot the number down without any unit.

## Input State, in one line, measured DTIO Corr train of `Cc1cccc(-c2[nH]c(C(C)(C)C)nc2-c2ccc3c(c2)OCO3)n1`
## Output 0.2562

## Input State, in one line, measured DTIO Corr train of N=C(N)NC(=N)Nc1cccc(Cl)c1 [m-Chlorophenylbiguanide]
## Output −0.09639

## Input State, in one line, measured DTIO Corr train of CC1(S(=O)(=O)[O-])CC(=O)c2ccccc2C1=O.[Na+] (stereo not drawn)
## Output 0.003549

## Input State, in one line, measured DTIO Corr train of `O=C(O)Cc1cccnc1C(=O)O`
## Output −0.1121

## Input State, in one line, measured DTIO Corr train of `C=CC(=O)Nc1cc2c(Nc3ccc(F)c(Cl)c3)ncnc2cc1C#CC(C)(C)N1CCN(C)CC1.Cc1ccc(S(=O)(=O)O)cc1.Cc1ccc(S(=O)(=O)O)cc1`
## Output −0.09469

## Input State, in one line, measured DTIO Corr train of `CN[C@@H](C)[C@H]1[C@H](O)C[C@@]2(C)[C@@H]3CC[C@H]4C(C)(C)[C@@H](NC)CC[C@@]45C[C@@]35CC[C@]12C`
## Output 0.06721

## Input State, in one line, measured DTIO Corr train of `Clc1ccc(C2(c3ccc(-c4cn[nH]c4)cc3)CCNCC2)cc1`
## Output 0.04812

## Input State, in one line, measured DTIO Corr train of CC(C)(C)NCc1cc(Nc2ccnc3cc(Cl)ccc23)c2c(c1O)CCCC2.O=P(O)(O)O.O=P(O)(O)O [naphthoquine-phosphate]
## Output 0.03212

## Input State, in one line, measured DTIO Corr train of `COc1cc2ncnc(Nc3cccc(Br)c3)c2cc1OC`
## Output −0.1232

## Input State, in one line, measured DTIO Corr train of `CC(C)C(=O)c1ccc(O)c(O)c1`
## Output −0.1115

## Input State, in one line, measured DTIO Corr train of `NC(=O)CCCCn1ccc(NC(N)=NCC(F)(F)F)n1`
## Output −0.09255

## Input State, in one line, measured DTIO Corr train of `C=CC(=O)Nc1cccc(Nc2nc(Nc3ccc(Oc4ccnc(C(=O)NC)c4)cc3)ncc2F)c1`
## Output 0.07802

## Input State, in one line, measured DTIO Corr train of `O=[N+]([O-])c1cc(Cl)ccc1S(=O)(=O)N1CCN(Cc2ccccc2)CC1`
## Output −0.1839

## Input State, in one line, measured DTIO Corr train of `O=Nc1ccc(O)c2ncccc12`
## Output 0.09356

## Input State, in one line, measured DTIO Corr train of `CCCCC/C=C\C=C\CCCCCCCCC(=O)O`
## Output −0.1009

## Input State, in one line, measured DTIO Corr train of `Cc1ccc(-n2sc(=O)n(Cc3ccc(F)cc3)c2=O)cc1`
## Output 0.0404

## Input State, in one line, measured DTIO Corr train of CCN(CC)C(=S)[S-].O.O.O.[Na+] [ditiocarb-sodium-trihydrate]
## Output −0.01519

## Input State, in one line, measured DTIO Corr train of `COc1cc(C[C@@H]2NCCc3cc(O)c(O)cc32)cc(OC)c1OC`
## Output −0.0983
